System Under Test: Recombinant GST-TAG-MASTL (Homo sapiens, UniProt Q96GX5)
Construct: GST; purchased Thermo Fisher Scientific
Sequence (Q96GX5 whole entry): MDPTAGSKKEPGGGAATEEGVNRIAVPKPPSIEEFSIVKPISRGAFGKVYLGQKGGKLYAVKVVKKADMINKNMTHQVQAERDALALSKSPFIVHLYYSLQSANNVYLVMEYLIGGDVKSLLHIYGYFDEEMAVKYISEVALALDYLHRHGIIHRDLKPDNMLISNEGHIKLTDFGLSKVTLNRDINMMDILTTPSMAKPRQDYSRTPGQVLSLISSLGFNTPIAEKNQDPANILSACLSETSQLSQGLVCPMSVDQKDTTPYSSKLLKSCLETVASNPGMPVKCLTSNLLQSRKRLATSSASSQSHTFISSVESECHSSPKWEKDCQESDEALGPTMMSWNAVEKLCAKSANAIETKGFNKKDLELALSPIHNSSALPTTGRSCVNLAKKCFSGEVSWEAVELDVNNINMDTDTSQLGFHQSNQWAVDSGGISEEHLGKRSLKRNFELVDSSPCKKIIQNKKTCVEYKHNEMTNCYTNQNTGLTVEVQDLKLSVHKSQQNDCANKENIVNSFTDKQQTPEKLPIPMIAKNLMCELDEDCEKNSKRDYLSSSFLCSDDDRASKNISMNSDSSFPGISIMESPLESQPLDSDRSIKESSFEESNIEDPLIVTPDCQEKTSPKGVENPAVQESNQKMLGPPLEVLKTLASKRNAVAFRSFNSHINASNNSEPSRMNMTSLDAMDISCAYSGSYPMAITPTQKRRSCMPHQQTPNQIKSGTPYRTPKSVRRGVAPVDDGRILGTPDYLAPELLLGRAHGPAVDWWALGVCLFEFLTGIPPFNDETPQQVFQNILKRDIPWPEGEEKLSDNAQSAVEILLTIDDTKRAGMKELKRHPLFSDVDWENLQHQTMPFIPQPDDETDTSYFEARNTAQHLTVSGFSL
Procedure Details: HTRF-based kinase assay (HTRF KinEASE assay kit)
Assay type: biochemical
Test Parameters: compound 1 µM; read-out: MASTL activity (%) HTRF (1 µM)
Threshold-based label: activity at 1 µM under 50% gives t, activity at 1 µM not under 50% gives f.

Exercise: Just wondering, is activity at 1 µM of N#CCc1ccc(Nc2nc(Nc3ccc(Cl)nn3)c3ccccc3n2)cc1 below 50%?
Key: f

Exercise: Determine if CC(C)(C)OC(=O)N1CC2C(C1)C2Nc1nc(Nc2cc(C3CC3)[nH]n2)c2ccccc2n1 (stereo not shown) shows activity at 1 µM strictly lower than 50%.
Key: f

Exercise: A record lists c1ccc2c(Nc3cc(C4CC4)[nH]n3)nc(Nc3ccc4[nH]ncc4c3)nc2c1 . Is its activity at 1 µM below 50%?
Key: t

Exercise: Is activity at 1 µM of CC(C)(C)OC(=O)NCCCCNC(=O)c1ccc(Nc2nc(Nc3cc(C4CC4)[nH]n3)c3ccccc3n2)cc1 strictly below 50%?
Key: f

Exercise: is_below(activity at 1 µM, 50%) for c1ccc2c(Nc3cc(C4CC4)[nH]n3)nc(Nc3cc(C4CC4)[nH]n3)nc2c1 ?
Key: f

Exercise: Record NC(=O)Cc1ccc(Nc2nc(Nc3cc(C4CC4)[nH]n3)c3ccccc3n2)cc1 : is its activity at 1 µM strictly below 50%?
Key: t

Exercise: Please determine if CC(C)(C)OC(=O)N1CCC2(CC1)CN(c1nc(Nc3cc(C4CC4)[nH]n3)c3ccccc3n1)C2 is below 50% in terms of activity at 1 µM.
Key: t

Exercise: For this compound, is activity at 1 µM lower than 50%? CC(C)(C)OC(=O)N1CCC2(CC1)CCN(c1nc(Nc3cc(C4CC4)[nH]n3)c3ccccc3n1)CC2
Key: t

Exercise: Record c1ccc2c(Nc3cc(C4CC4)[nH]n3)nc(Nc3ccc4cn[nH]c4c3)nc2c1 : is its activity at 1 µM strictly below 50%?
Key: t

Exercise: A record lists CC(C)(C)OC(=O)Cc1ccc(Nc2nc(Nc3cc(C4CC4)[nH]n3)c3ccccc3n2)cc1 . Is its activity at 1 µM below 50%?
Key: f

Exercise: Criterion: activity at 1 µM strictly below 50%. Is it met by O=S(=O)(c1ccc(F)cc1F)N1CC2CCC1CN2c1nc(Nc2cc(C3CC3)[nH]n2)c2ccccc2n1 (stereo not shown) [compound 24c] ?
Key: t

Exercise: Does N#CCc1ccc(Nc2nc(Nc3ccccc3F)c3ccccc3n2)cc1 have activity at 1 µM strictly under 50%?
Key: f

Exercise: Item c1ccc2sc(-c3ccc(Nc4nc(Nc5cc(C6CC6)[nH]n5)c5ccccc5n4)cc3)nc2c1 : activity at 1 µM beneath 50%, strictly?
Key: f

Exercise: Hello, I'm reviewing records and need to know if activity at 1 µM of CC(C)C(=O)N1CC2CC1CN2c1nc(Nc2cn[nH]c2)c2ccccc2n1 (stereo not shown) [compound 28c] is below 50%. Could you check?
Key: f

Exercise: Given the entry O=C(c1ccccc1)N1CC2CC1CN2c1nc(Nc2cc(C3CC3)[nH]n2)c2ccccc2n1 (stereo not shown) [compound 15e] , would its reported activity at 1 µM be below 50%?
Key: f
